System tested: cynomolgus monkey heterodimeric single-chain CD3εγ extracellular domain (cynomolgus monkey, UniProt Q95LI5 22-117; Q95LI7 23-113)
Sequence (Q95LI7 other isoform, or with tags, fused parts or gaps): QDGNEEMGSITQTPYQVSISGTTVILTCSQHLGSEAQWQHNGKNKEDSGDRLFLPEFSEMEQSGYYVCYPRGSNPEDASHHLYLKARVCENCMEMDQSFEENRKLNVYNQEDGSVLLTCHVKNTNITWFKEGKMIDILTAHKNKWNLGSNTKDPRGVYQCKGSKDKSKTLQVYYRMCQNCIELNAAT
Assay explanation: SPR; ratio of the KDs for cyno and human single-chain CD3εγ
Observed property: KD (human)/KD (cyno)
API doc: respond with a numeric literal and nothing else, no unit.

{"Binder": "clone-09 (antibody, V domains shown, Recombinant rabbit IgG) VH: QSLEESGGRLVTPGTPLTLTCTVSGFPLNRYAMLWVRQAPGKGLEWIGLITRADKKYYASWAKGRFTISKTSTTVDLEITGPTTEDTATYFCARRHYNTDGYPVAIGDLWGPGTLVTVSS VL: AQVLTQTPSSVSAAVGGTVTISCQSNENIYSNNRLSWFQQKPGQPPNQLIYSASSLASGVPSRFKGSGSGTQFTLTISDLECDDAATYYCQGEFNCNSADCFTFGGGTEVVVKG", "KD (human)/KD (cyno)": 10}

# context switch: different binder, same KD (human)/KD (cyno)
Entry clone-02 (antibody, V domains shown, Recombinant rabbit IgG; also called Clone 2) VH: QSLEESGGRLVTPGTPLTLTCTVSGFPLSAYAMIWVRQAPGKGLEWIGMIIRSGTVYYANWAKGRFTISKTSTTVDLKITSPTTEDTATYFCARRHYNADGYPIGIGDLWGPGTLVTVSS VL: AQVLTQTPSSVSAVVGGTVTISCQSSESVYSNNRLSWFQQKPGQPPKLLIYSASTLASGVPSRFKGSGSGTQFTLTITDLECDDAATYFCQGEFSCSSVDCFSFGGGTEVVVKG has what KD (human)/KD (cyno)?
13
